Value source: ChEMBL document CHEMBL1156435

assay notes: Stability in human HL60 cells assessed as percentage drug remaining at 10 uM after 16 hrs
Type: ADME, cell-based
setup conditions: HL-60 cells, read-out: Activity
measured quantity: remaining at 16 h, 10 µM (%)
Output spec: scalar in %, unitless text.

-- ask So what's the measured remaining at 16 h, 10 µM for this one? C[C@H]1[C@@H](Oc2ccc(Br)cc2)O[C@@H]2O[C@]3(C)CC[C@H]4[C@H](C)CC[C@@H]1[C@@]24OO3
-- reply 37

---

System: HL-60
assay notes: Cytotoxicity against human HL60 cells after 16 hrs by MTT assay
Type: functional, cell-based
setup conditions: HL-60, 16 h
Give measured pIC50 for each item. Keep answers brief.
Recall that pIC50 is obtained by taking minus log10 of the concentration measured in molar.

-- ask Any idea what pIC50 came out for C[C@H]1[C@@H](Oc2ccc(F)cc2)O[C@@H]2O[C@]3(C)CC[C@H]4[C@H](C)CC[C@@H]1[C@@]24O3 on HL-60?
-- reply 5.42

-- ask Also C[C@H]1[C@@H](Oc2ccc(F)cc2)O[C@@H]2O[C@]3(C)CC[C@H]4[C@H](C)CC[C@@H]1[C@@]24OO3 , if possible.
-- reply 5.22

---

Tested on: HL-60
assay notes: Cytotoxicity against human HL60 cells after 24 hrs by MTT assay
Type: functional, cell-based
setup conditions: HL-60, 24 h
measured quantity: pIC50
Recall that pIC50 is obtained by taking minus log10 of the concentration measured in molar.

-- ask So what's the measured pIC50 for this one? C[C@H]1[C@@H](Oc2ccc(F)cc2)O[C@@H]2O[C@]3(C)CC[C@H]4[C@H](C)CC[C@@H]1[C@@]24OO3
-- reply 6.29

-- ask Also C[C@H]1[C@@H](Oc2ccc(F)cc2)O[C@@H]2O[C@]3(C)CC[C@H]4[C@H](C)CC[C@@H]1[C@@]24O3 , if possible.
-- reply 6.34

---

assay notes: Stability in human PBMC assessed as percentage drug remaining at 10 uM after 24 hrs
Type: ADME, cell-based
setup conditions: read-out: Activity
measured quantity: remaining at 24 h, 10 µM (%)
Output spec: scalar in %, unitless text.

-- ask So what's the measured remaining at 24 h, 10 µM for this one? C[C@H]1[C@@H](Oc2ccc(Br)cc2)O[C@@H]2O[C@]3(C)CC[C@H]4[C@H](C)CC[C@@H]1[C@@]24OO3
-- reply 64

---

assay notes: Stability in human HL60 cells assessed as percentage drug remaining at 10 uM after 24 hrs
Type: ADME, cell-based
setup conditions: HL-60 cells, read-out: Activity
measured quantity: remaining at 24 h, 10 µM (%)
Output spec: scalar in %, unitless text.

-- ask So what's the measured remaining at 24 h, 10 µM for this one? C[C@H]1[C@@H](Oc2ccc(Br)cc2)O[C@@H]2O[C@]3(C)CC[C@H]4[C@H](C)CC[C@@H]1[C@@]24OO3
-- reply 19
